molecules and their reported ka
- target_under_test: human TMPRSS2 (Homo sapiens, UniProt O15393)
- Sequence (O15393 106-492 limits assumed): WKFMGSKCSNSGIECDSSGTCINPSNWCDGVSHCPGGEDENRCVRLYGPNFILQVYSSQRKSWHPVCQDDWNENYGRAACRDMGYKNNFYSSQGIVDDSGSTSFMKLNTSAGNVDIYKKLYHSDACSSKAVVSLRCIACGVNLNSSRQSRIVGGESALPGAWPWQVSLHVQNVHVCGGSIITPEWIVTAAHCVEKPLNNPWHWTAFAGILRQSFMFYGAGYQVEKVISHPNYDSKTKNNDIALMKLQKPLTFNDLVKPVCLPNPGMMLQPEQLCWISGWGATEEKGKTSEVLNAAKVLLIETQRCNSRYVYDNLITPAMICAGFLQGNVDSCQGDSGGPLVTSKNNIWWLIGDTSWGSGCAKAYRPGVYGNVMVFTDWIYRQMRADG
- protocol: BIACore binding assay of anti-TMPRSS2 antibodies
- test_conditions: Table 1, mouse mAbs, 25° C.
Note: state the figure and append the unit.

2114_16: mouse anti-human TMPRSS2 monoclonal antibody, IgG2c λ; VH SEQ ID NO: 106, VL SEQ ID NO: 107 (antibody, V domains shown, mouse IgG2c lambda constant regions; 2114_16 VH; 2114_16 VL) VH: EVQLQQSGPELVKPGASVKISCKASGYTFTDYYMNWVKRRHGKSLEWIGNINPNNGGTSYNQKFKGKATLTVDKSSSTAYMELRSLTSEDSVVYYCAREGDLFPFAYWGQGTLVTVSA VL: QAVVTQESALTTSPGETVTLTCRSSIGTVTTSNFANWVQEKPDHLFTGLIGASNNRAPGVPARFSGSLIGDKAALTITGAQTEDEAIYFCALWFSNHWVFGGGTKLTVL :: 570000 M⁻¹ s⁻¹
1831_15: mouse anti-human TMPRSS2 monoclonal antibody, IgG2b κ; VH SEQ ID NO: 98, VL SEQ ID NO: 99 (antibody, V domains shown, mouse IgG2b kappa constant regions; 1831_15 VH; 1831_15 VL) VH: QVQLQQPGAELVKPGASVKLSCKASGYSFTTYWMHWVRQRPGQGLEWIGIIHPNSGTTNYNEKFKSKASLTVDKSSSTAYMQLSSLTSEDSAVYYCARLLWDYFDYWGQGTTLTVSS VL: DIVMSQSPSSLAVSAGEKVTMSCKSSQSLLNSRTRKNFLAWYQQKPGQSPKLLIYWASTRESGVPDRFTGSGSGTDFTLTISSVQAEDLAVYYCKQSYNLYTFGGGTKLEIK :: 563000 M⁻¹ s⁻¹

Would you kindly look at the next entry?
(Q) Field request: ka | item: 1864_10: mouse anti-human TMPRSS2 monoclonal antibody, IgG2b κ; VH SEQ ID NO: 17, VL SEQ ID NO: 18 (antibody, V domains shown, mouse IgG2b kappa constant regions; 1864_10 VH; 1864_10 VL) VH: QVQLQQSGPALVKPGASLKISCEASGYTFTYYSINWVKQRPGQGLEWIGWIFPGSGSTYYNEKFKGKATLTIDKSSSTAYMLLSSLTSEDSAVYFCARSDYGSAYGYFDVWGTGTTVTVSS VL: DIVLTQSPASLAVSLGQRATISCRASKSVSTSGYSYMHWYQQKPGQPPKLLIYLASNLESGVPARFSGSGSGTDFTLNIHPVEEEDAATYYCQHSRDLPLTFGAGTKLELK
(A) 563000 M⁻¹ s⁻¹
